B1: WSB1 (parent)
chain: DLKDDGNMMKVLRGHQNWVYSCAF

- Variants of: B1
- TEST DETAILS: protein stability index of a GFP-peptide fusion (GPS, HEK-293T) (PSI 1-6); higher = more stable;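 also: lentivirally expressed fusions sorted by FACS into six bins by GFP to DsRed ratio, PSI derived from sequencing read proportions per bin multiplied by bin number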
- TEST CONDITIONS: c terminus: a fixed tail appended
So basically: protein stability index at 2 or higher? That is Yes. Lower than 2? That is No.

# example entries with known answers
MUTATION LABEL: H15T
CATEGORY LABEL: No
//
MUTATION LABEL: K3M
CATEGORY LABEL: Yes
//
MUTATION LABEL: G14K
CATEGORY LABEL: Yes

Please check the record "L12I" and state if its protein stability index is at or above 2.
No

Please check the record "H15M" and state if its protein stability index is at or above 2.
No

Please check the record "F24W" and state if its protein stability index is at or above 2.
Yes

Please check the record "G14C" and state if its protein stability index is at or above 2.
Yes

Please check the record "H15D" and state if its protein stability index is at or above 2.
No

Please check the record "R13T" and state if its protein stability index is at or above 2.
Yes

Please check the record "D4L" and state if its protein stability index is at or above 2.
Yes

Please check the record "L2F" and state if its protein stability index is at or above 2.
No

Please check the record "S21Y" and state if its protein stability index is at or above 2.
Yes

Please check the record "Q16P" and state if its protein stability index is at or above 2.
Yes

Please check the record "K10Y" and state if its protein stability index is at or above 2.
Yes

Please check the record "S21T" and state if its protein stability index is at or above 2.
No

Please check the record "D1H" and state if its protein stability index is at or above 2.
No

Please check the record "M9T" and state if its protein stability index is at or above 2.
No

Please check the record "A23P" and state if its protein stability index is at or above 2.
Yes
